Catalogue of molecules with associated inhibition at 10 µM
- system: HSF-PLA2 (extracellular PLA2 obtained from human synovial fluid) (Homo sapiens, UniProt P14555)
- Construct: extracellular enzyme obtained from human synovial fluid; from tissue; host or cells: human synovial fluid (pooled)
- Sequence (P14555 21-144): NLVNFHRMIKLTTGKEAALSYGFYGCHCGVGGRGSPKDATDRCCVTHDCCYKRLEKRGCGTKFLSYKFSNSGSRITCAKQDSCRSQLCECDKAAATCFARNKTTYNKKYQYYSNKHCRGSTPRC
- methodSummary: Assay for inhibition of HSF-PLA2 in vitro
- Assay type: biochemical
- experimentalContext: 10 μM test compound; read-out: % Inhib of HSF-PLA2
propertyMeasured: inhibition at 10 µM

INSERT INTO measurements (molecule, reported) VALUES
  ('CCCCCCCCCCCCCCOc1ccc(OCc2ccccc2)c(C(=O)N(CC(=O)O)CC(=O)O)c1 [Example 86]', '70%'),
  ('CCCCCCCCCCCCCCCCCCOc1ccc(OCCCOc2ccc(OCc3ccccc3)cc2)c(C(=O)N(CC(=O)O)CC(=O)O)c1 [Example 99]', '86%'),
  ('O=C(O)CN(CC(=O)O)C(=O)C(=O)c1ccc(OCCCCCCCCCCCCOc2ccccc2)cc1 [Example 114]', '35%'),
  ('CCCCCCCCCCCCCCCCCCOc1ccc(OCCCOc2ccc(O)cc2)c(C(=O)N(CC(=O)O)CC(=O)O)c1 [Example 100]', '77%');
